Kindly state pIC50 for each of the entries shown.
Molecular target: mevalonate kinase (Streptococcus pneumoniae D39)
Assay: S. pneumoniae MK inhibition retest, confirmation, biochemical, cuvette format, NADH absorbance 340 nm (AID 1000)
Conditions: recombinant MK, PK/LDH coupled NADH absorbance 340 nm
Give bare numbers, as −log10 of the molar value.

Below, 5 molecules whose answers are already recorded.
>>> df
                           structure_smiles  result_number
0     O=C(c1ccccc1-n1sc2ccccc2c1=O)N1CCCCC1           6.27
1  O=C(NCCN1CCCC1)c1ccc(-n2sc3ccccc3c2=O)cc1           6.52
2    CCN(CC)C(=O)c1cccc(-n2sc3ccccc3c2=O)c1           6.67
3  Cc1ccc(-n2sc3ccccc3c2=O)cc1S(=O)(=O)N1CCCC1           7.08
4   O=C(c1cccc(-n2sc3ccccc3c2=O)c1)N1CCOCC1           6.36

Next up:
Per the record, CCN(CC)C(=O)c1ccccc1-n1sc2ccccc2c1=O has pIC50 of 6.00
